Assay: clinical
Settings: human, in vivo, cycle 1 day 28 of dose-escalation phase, 800 mg (n=2), mean
Protocol: For single-dose PK parameters, plasma samples were taken at pre-dose and 0.5 h, 1 h, 2 h, 3 h, 4 h, 6 h, 8 h, 12 h, 24 h, 48 h, 72 h, 96 h, 120 h, 144 h, and 168 h post-dose in PK lead-in phase of dose-escalation phase, and plasma samples were also taken at pre-dose and 0.5 h, 1 h, 2 h, 3 h, 4 h, 6 h, 8 h, 12 h, and 24 h post-dose in cycle 1 day 1 of dose-expansion phase. […]
READOUT KIND: AUC(0-t)

Which measured AUC(0-t) value corresponds to COc1cc(N2CCC(N3CCN(C)CC3)CC2)ccc1Nc1nc2c(c(Nc3ccccc3S(=O)(=O)NC(C)C)n1)CCN2 [Conteltinib] ?
5500 ng·h/mL
